System: Clone20 osteoblast Shn3 3'UTR firefly luciferase, 24 h
assay.remarks: Shn3 3'UTR reporter inhibitors, dose response, cell-based, Clone20 osteoblasts, luminescence, dry powder, set 2 (AID 743417)
Results filed as inconclusive are left out.
Consider the following compounds; for each one, report its AC50.

CCCCCCCCNC(C)C(O)c1ccc(SC(C)C)cc1 (stereo not given)
3.94 µM
CC[n+]1c(/C=C/Nc2ccccc2)sc2ccccc21
2.06 µM

List AC50 for every entry below, keeping the order given.
1. CCOC(=O)c1c(CSCc2ccccc2)oc2ccc(O)c(CN(C)C)c12
2. OCCCNc1nccc(-c2cc(Nc3cccc(Cl)c3)ncn2)n1
3. CC(C)(C)NCC(=Cc1ccccc1)C(=O)c1ccccc1
4. COc1ccccc1NC(=O)Cn1c(C)cc(=O)c2cccc(OC)c21
5. CCOc1ccc(N(C)S(=O)(=O)c2cc(-c3cc(C)no3)ccc2C(C)C)cc1
6. COC(=O)C1=C(c2ccc(F)cc2OCc2ccccc2)C[C@@H]2CC[C@H]1N2C(=O)NC1Cc2ccccc2C1
7. CCN(CC)S(=O)(=O)c1ccc(NC(=O)Nc2cccc(C(F)(F)F)c2)cc1

Response:
9.79 µM
2.61 µM
4.51 µM
3.16 µM
4.13 µM
8 µM
5.6 µM

Request: What value of AC50 has been recorded for this entry: CC(CC(=O)N1CCN(c2cccc(Cl)c2)CC1)S(=O)(=O)c1ccc2c(c1)NC(=O)CO2 (stereo not given)
Response: 3.99 µM

---

Kindly supply the reported AC50 values for the records listed here.
System: Clone20 osteoblast Shn3 3'UTR firefly luciferase, 24 h
assay.remarks: Shn3 3'UTR reporter inhibitors, dose response, cell-based, Clone20 osteoblasts, luminescence, dry powder, set 2 (AID 743417)
Records with an inconclusive call do not appear.

Cc1ccc(-c2cn3cc(C)ccc3n2)cc1
1.32 µM
Cn1c(SCC(=O)N2CCCc3ccccc32)nc2ccccc2c1=O
3.46 µM
COC(=O)c1ccccc1NC(=S)N(Cc1ccc2c(c1)OCO2)Cc1cc2cc(OC)ccc2[nH]c1=O
10.4 µM
CC(=O)C1(C)CCC2C3C=C(C)C4=CC(=O)CCC4(C)C3CCC21C (stereo unspecified)
9.83 µM
Cn1c(=O)n(C)c2cc([N+](=O)[O-])c(N3CCN(S(=O)(=O)c4ccc(C(C)(C)C)cc4)CC3)cc21
3.53 µM
O=C(Cn1cc(C(=O)c2ccco2)c2ccccc21)Nc1ccccc1F
2.6 µM
O=[N+]([O-])c1ccc(S(=O)(=O)c2ccccc2)nc1
1.74 µM
COC(=O)c1ccc(CCc2cc(O)ccc2O)cc1
3.14 µM

Provide reported AC50 for each item, in the same order as listed.
1. CCn1c(N2CCN(S(=O)(=O)c3ccc(Cl)cc3)CC2)nc2ccccc21
2. CC(C)(C)C(=O)Nc1ccc(NC(=O)c2ccco2)nc1

Response:
9.14 µM
1.17 µM

Record AC50 per entry; entries follow.
1. O=C1CSc2ccc(C(=O)Nc3cccc(S(=O)(=O)Nc4ccc(Br)cc4)c3)cc2N1
2. C[C@H]1CCC/C=C/[C@@H]2C[C@H](O)C[C@H]2[C@@H](O)/C=C/C(=O)O1
3. O=C(Nc1ccc([N+](=O)[O-])cc1Cl)c1cc(Cl)ccc1O
4. CCCCNc1cccc2c1S(=O)(=O)N(CCCC)CC(COCc1ccccc1)O2 (stereo unspecified)
5. CC(C)c1ccc(NC(=O)Nc2nc(C(N)CCc3ccccc3)cs2)cc1 (stereo unspecified)
6. CCN(c1ccccc1)S(=O)(=O)c1ccc(Cl)c(NC(=O)CN(C)Cc2cccc(F)c2)c1
7. COC(=O)[C@]1(C)CCC[C@@]2(C)C3CC[C@@]4(C)C[C@]3(CCC21)CC(=O)N4Cc1ccc(OC)cc1 (stereo partly specified)
8. COc1ccc(/C=C/C(=O)c2ccc(C(=O)/C=C/c3ccc(OC)c(OC)c3)cc2)cc1OC

Response:
1. 3.08 µM
2. 2.17 µM
3. 3 µM
4. 8.93 µM
5. 5.36 µM
6. 8.78 µM
7. 8.16 µM
8. 5.18 µM

Below are some compounds; for each one, tell me its AC50.
1. c1ccc(-c2noc(-c3ccc4ccccc4c3)n2)nc1
2. OCCCNc1cc(-c2ccnc(Nc3cccc(Cl)c3)n2)ccn1
3. C[C@H](NC(=O)c1ncn2c1c(=O)[nH]c1ccc(Br)cc12)c1ccccc1

Response:
1.98 µM
< 0.26 µM
8.76 µM

---

Test system: Clone20 osteoblast Shn3 3'UTR firefly luciferase, 24 h
assay.remarks: Shn3 3'UTR reporter inhibitors, dose response, cell-based, Clone20 osteoblasts, luminescence, dry powder, set 2 (AID 743417)
Results filed as inconclusive are left out.
measure.name: AC50

Some solved entries appear below for comparison.
COc1ccc(C(NC(C)=O)c2cc(Cl)c3cccnc3c2O)cc1 (stereo not given)
1.61 µM
COc1ccc2c(CC(=O)OCC(=O)N(C)c3c(N)n(Cc4ccccc4)c(=O)[nH]c3=O)coc2c1
21.2 µM
CC(=O)OC[C@]12CC[C@H]3[C@@](C)(CC[C@H]4C(C)(C)CCC[C@]34C)[C@@H]1CC(C1=CC(=O)OC1O)O2 (stereo not given in full)
0.634 µM
CCn1c(/C=C/c2ccc([N+](=O)[O-])o2)nc2ccccc2c1=O
4.51 µM

Proceeding to the next compound to report its AC50.
Request: Need AC50, item `CCCc1nnc(NC(=O)c2nc(S(=O)(=O)Cc3ccc(C)cc3)ncc2Cl)s1`
Response: 0.538 µM

---

Field: AC50. Provide a value for each of the molecules that follow.
Tested on: Clone20 osteoblast Shn3 3'UTR firefly luciferase, 24 h
assay.remarks: Shn3 3'UTR reporter inhibitors, dose response, cell-based, Clone20 osteoblasts, luminescence, dry powder, set 2 (AID 743417)
Results filed as inconclusive are left out.

The examples below pair each entry with its known result.
O=C(Nc1nc2c(F)cc(F)cc2s1)c1ccccn1
6.69 µM
COc1cccc(N2CCN(c3ncnc4c3[nH]c3ccc(F)cc34)CC2C)c1 (stereo not given)
1.31 µM
CCOc1cc(/C=C\[N+](=O)[O-])ccc1OCC(=O)Nc1ccccc1C
< 0.26 µM
CCCC(=O)NC(c1cccc([N+](=O)[O-])c1)c1ccc2cccnc2c1O (stereo not given)
1.75 µM
CCOc1cc(N2CCOCC2)c(OCC)cc1NC(=O)c1cc(-c2ccco2)nc2ccccc12
8.94 µM

I need AC50 for every entry listed below, if you could help.
1. CCOC(=O)/C=C/C(=O)OCC(=O)NC(c1ccccc1)c1ccccc1
2. CCc1nnc(NC(=O)c2nc(S(=O)(=O)Cc3ccc(C)cc3)ncc2Cl)s1
3. O=c1c2ccccc2cnn1-c1nc2ccccc2[nH]1
4. CCOC(=O)N1CCN(c2ccc(S(=O)(=O)N(Cc3ccccc3)Cc3ccccc3)cn2)CC1
5. O=C(Nc1nc(-c2ccccc2)cs1)C1CCCCN1S(=O)(=O)c1ccccc1 (stereo not given)

Response:
1. 5.14 µM
2. 3.01 µM
3. 1.33 µM
4. 2.59 µM
5. 5.14 µM

---

Test system: Clone20 osteoblast Shn3 3'UTR firefly luciferase, 24 h
assay.remarks: Shn3 3'UTR reporter inhibitors, dose response, cell-based, Clone20 osteoblasts, luminescence, dry powder, set 2 (AID 743417)
Results filed as inconclusive are left out.
measure.name: AC50

Some solved entries appear below for comparison.
COc1cc(/C=C/C(=O)c2ccc3c(c2)OCCO3)cc(Br)c1OCC(=O)N(C)C
2.63 µM
Cc1cccc(Nc2nc(NCc3ccco3)c3ccccc3n2)c1
2.05 µM
CN(C)C1=NC[C@H](Cc2ccccc2)N1CCCC1CCCCC1
1.47 µM
CCn1c(C)cc(C(=O)COC(=O)c2ccccc2[N+](=O)[O-])c1C
< 0.26 µM

Request: Look up AC50 for this compound: `O=C(NNC(=O)C1CCN(S(=O)(=O)c2ccc(Cl)cc2)CC1)c1ccccc1O`
Response: 18.5 µM

---

Tested on: Clone20 osteoblast Shn3 3'UTR firefly luciferase, 24 h
assay.remarks: Shn3 3'UTR reporter inhibitors, dose response, cell-based, Clone20 osteoblasts, luminescence, dry powder, set 2 (AID 743417)
Results filed as inconclusive are left out.
Could you please report measured AC50 for the items listed next?

Completed entries (count: 10):
COc1ccc(C(C(=O)NC2CCCCC2)N(C(=O)CCl)c2ccc(OC)cc2)cc1 (stereo unspecified)
5.56 µM
CCCOc1ccccc1C1CC(=O)Nc2cc3c(cc21)OCCO3 (stereo unspecified)
3.66 µM
CCc1ccc(CNCc2ccc(OCC(O)CN(C)Cc3ccccc3)cc2)nc1 (stereo unspecified)
4.43 µM
CCOC(=O)c1cnc(-n2nc(C)cc2C)nc1NNc1nc(-c2ccccc2)cc(-c2ccccc2)n1
3.84 µM
COc1ccc(CC(=O)Nc2cccc(S(=O)(=O)N3CCCCCC3)c2)cc1OC
2.27 µM
CCCCC(=O)NC(c1ccccc1)c1ccc2cccnc2c1O (stereo unspecified)
2.35 µM
CSc1ccc(CN(C)C(=O)c2cccc(S(=O)(=O)N3CCN(Cc4ccccc4)CC3)c2)cc1
2.89 µM
Oc1cc(Nc2ccccc2)cc2cccnc12
1.79 µM
O=[N+]([O-])c1cccnc1S(=O)(=O)c1ccccc1
4.79 µM
CCCC(=O)NC(c1cccs1)c1cc(Cl)c2cccnc2c1O (stereo unspecified)
3.16 µM

Request: Please report the recorded AC50 for `O=C(NCCc1ccccc1)c1ccc2c(c1)OCCO2` .
Response: 2.16 µM
